# Procedure details: Intrinsic clearance in human liver microsome at 1 uM incubated for 30 mins in presence of NADPH by LC-MS/MS analysis
# Type: ADME, microsomes
# Assay conditions: liver microsomes, read-out: CLH
Measurement label: log10(microsomal CLint at 1 µM) (log10 of the value in µL/min/mg)
// stored as log10 of microsomal CLint at 1 µM expressed in µL/min/mg

Reference set, count: 2
Compound	Reading
CC[C@]1(c2cccc(NC(=O)c3cc(C)nc(C4CC4)n3)c2)CCNC(=O)O1	1.73
C[C@H]1CCCN(Cc2cc(C(F)(F)F)c3nn(-c4cccc([C@]5(C)CCNC(=O)C5)c4)c(=O)n3c2)C1	2.23

Prompt: Which log10(microsomal CLint at 1 µM) is reported for this compound? Cc1cc(C(=O)Nc2cccc([C@]3(c4nncn4C)C[C@@H](C)C3)c2)nc(C2CC2)n1
Completion: 1.54

Prompt: Param item: Cc1cc(C(=O)Nc2cccc(C3(C)CCNC(=O)N3)c2)nc(C2CC2)n1 (racemic)
Completion: 0.82

---

# Procedure details: Lipophilicity, logD of compound in octanol/aqueous buffer at pH 7.4 incubated for 2 hrs by shake flask method
# Assay type: physicochemical
# Assay conditions: octanol/aqueous buffer, pH 7.4
Measurement label: logD at 2 h

Reference set, count: 2
Structure as smiles	Measurement label	Reading
C[C@H]1CCCN(Cc2cc(C(F)(F)F)c3nn(-c4cccc([C@@]5(C)CCNC(=O)C5)c4)c(=O)n3c2)C1	logD at 2 h	3.4
Cc1cc(C(=O)Nc2cccc([C@@]3(C4CC4)CCNC(=O)O3)c2)nc(C2CC2)n1	logD at 2 h	3

Prompt: Which logD at 2 h is reported for this compound? C[C@H]1CCCN(Cc2cc(C(F)(F)F)c3nn(-c4cccc([C@]5(c6nncn6C)C[C@@H](C)C5)c4)c(=O)n3c2)C1
Completion: 3.9

Prompt: Param item: CC[C@]1(c2cccc(NC(=O)c3cc(C)nc(C4CC4)n3)c2)CCNC(=O)O1
Completion: 2.9

Prompt: Param item: Cc1cc(C(=O)Nc2cccc([C@]3(c4nncn4C)C[C@@H](C)C3)c2)nc(C2CC2)n1
Completion: 3.2

Prompt: Param item: Cc1cc(C(=O)Nc2cccc([C@]3(C4CC4)CCNC(=O)O3)c2)nc(C2CC2)n1
Completion: 3

Prompt: Param item: C[C@H]1CCCN(Cc2cc3c(c(C(F)(F)F)c2)CN(c2cccc([C@]4(c5nncn5C)C[C@@H](C)C4)c2)C3=O)C1
Completion: 4

Prompt: Param item: Cc1cc(C(=O)Nc2cccc([C@@]3(C)CCNC(=O)O3)c2)nc(C2CC2)n1
Completion: 2.4

---

Reported microsomal CLint at 1 µM values are given for each entry in this list.
# Procedure details: Intrinsic clearance in human liver microsome at 1 uM incubated for 30 mins in presence of NADPH by LC-MS/MS analysis
# Assay type: ADME, microsomes
# Assay conditions: liver microsomes, read-out: CLH

Prompt: Which microsomal CLint at 1 µM is reported for this compound? C[C@H]1CCCN(Cc2cc(C(F)(F)F)c3nn(-c4cccc([C@]5(C(=O)N(C)C)C[C@@H](C)C5)c4)c(=O)n3c2)C1
Completion: > 300 µL/min/mg

Prompt: Param item: C[C@H]1CCCN(Cc2cc(C(F)(F)F)c3nn(-c4cccc([C@@]5(C6CC6)CCNC(=O)O5)c4)c(=O)n3c2)C1
Completion: > 300 µL/min/mg

Prompt: Param item: C[C@H]1CCCN(Cc2cc3c(c(C(F)(F)F)c2)CN(c2cccc([C@]4(c5nncn5C)C[C@@H](C)C4)c2)C3=O)C1
Completion: 130 µL/min/mg

Prompt: Param item: CNC(=O)[C@]1(c2cccc(-n3nc4c(C(F)(F)F)cc(CN5CCC[C@H](C)C5)cn4c3=O)c2)C[C@H](C)C1
Completion: > 300 µL/min/mg

Prompt: Param item: Cc1cc(C(=O)Nc2cccc([C@]3(C)CCNC(=O)C3)c2)nc(C2CC2)n1
Completion: 34 µL/min/mg

Prompt: Param item: CC1CC(c2cccc(-n3nc4c(C(F)(F)F)cc(CN5CCC[C@H](C)C5)cn4c3=O)c2)(n2cccn2)C1 (stereo partly specified)
Completion: > 300 µL/min/mg

---

# Procedure details: Intrinsic clearance in human liver microsome at 1 uM incubated for 30 mins in presence of NADPH by LC-MS/MS analysis
# Assay type: ADME, microsomes
# Assay conditions: liver microsomes, read-out: CLH
Reported microsomal CLint at 1 µM values are given for each entry in this list.
Please respond with the number in µL/min/mg and leave the unit unwritten.

Reference set, count: 2
Structure as smiles	Unit name	Reading
O=C1NCC[C@](c2cccc(-c3cc(C(F)(F)F)c[nH]c3=O)c2)(C2CC2)O1	µL/min/mg	18
CC[C@@]1(c2cccc(NC(=O)c3cc(C)nc(C4CC4)n3)c2)CCNC(=O)O1	µL/min/mg	27

Next compound, microsomal CLint at 1 µM to be filled in.
Prompt: Which microsomal CLint at 1 µM is reported for this compound? C[C@H]1CCCN(Cc2cc(C(F)(F)F)c3nn(-c4cccc([C@@]5(C)CCNC(=O)C5)c4)c(=O)n3c2)C1
Completion: 230
